The values you see were collected from ChEMBL document CHEMBL1159116.

test: Inhibition of farnesyl protein transferase assessed as transfer of [3H]farnesyl from [3H]farnesyl pyrophosphate to […]
pIC50: −log10 of the molar value.
Reported values of pIC50 for individual entries
Measured Parameter: pIC50

INSERT INTO assay_data (smiles_entry, measured_parameter, quantitative_readout) VALUES
  ('Cn1cncc1[C@@H](O)C1=Cc2cccnc2[C@@H](N2CCN(C(=O)OC(C)(C)C)CC2)c2ccc(Cl)cc21', 'pIC50', 7.92),
  ('Cn1cncc1[C@H](O)C1=Cc2cccnc2[C@@H](N2CCN(C(=O)NCc3ccccc3)CC2)c2ccc(Cl)cc21', 'pIC50', 9.89),
  ('Cn1cncc1CC1=Cc2cccnc2[C@@H](N2CCN(C(=O)Nc3ccc(C#N)cc3)CC2)c2ccc(Cl)cc21', 'pIC50', 9.54),
  ('Cn1cncc1[C@H](O)C1=Cc2cccnc2[C@@H](N2CCN(C(=O)NC3CCCCC3)CC2)c2ccc(Cl)cc21', 'pIC50', 9.33),
  ('CO[C@H](C1=Cc2cccnc2[C@@H](N2CCN(C(=O)OC(C)(C)C)CC2)c2ccc(Cl)cc21)c1cncn1C', 'pIC50', 8.32),
  ('Cn1cncc1[C@H](O)C1=Cc2cccnc2[C@@H](N2CCN(C(=O)OC(C)(C)C)CC2)c2ccc(Cl)cc21', 'pIC50', 9.42),
  ('CC(=O)O[C@H](C1=Cc2cccnc2[C@@H](N2CCN(C(=O)OC(C)(C)C)CC2)c2ccc(Cl)cc21)c1cncn1C', 'pIC50', 8.26),
  ('N#Cc1ccc(NC(=O)N2CCN([C@H]3c4ccc(Cl)cc4C(Cc4cnc[nH]4)=Cc4cccnc43)CC2)cc1', 'pIC50', 9.51),
  ('Cn1cncc1[C@H](O)C1=Cc2cccnc2[C@@H](N2CCN(C(=O)OC3CCCC3)CC2)c2ccc(Cl)cc21', 'pIC50', 9.12),
  ('Cn1cncc1[C@H](O)C1=Cc2cccnc2[C@@H](N2CCN(C(=O)OC3(C)CCCCC3)CC2)c2ccc(Cl)cc21', 'pIC50', 9.52),
  ('Cn1cncc1[C@H](O)C1=Cc2cccnc2[C@@H](N2CCN(C(=O)Nc3ccc(C#N)cc3)CC2)c2ccc(Cl)cc21', 'pIC50', 9.30),
  ('Cn1cncc1[C@H](O)C1=Cc2cccnc2[C@@H](N2CCN(C(=O)OC3CCCCC3)CC2)c2ccc(Cl)cc21', 'pIC50', 9.00),
  ('CC(C)OC(=O)N1CCN([C@H]2c3ccc(Cl)cc3C([C@@H](O)c3cncn3C)=Cc3cccnc32)CC1', 'pIC50', 9.12),
  ('Cn1cncc1[C@H](O)C1=Cc2cccnc2[C@@H](N2CCN(C(=O)NC(C)(C)C)CC2)c2ccc(Cl)cc21', 'pIC50', 9.40),
  ('CO[C@@H](C1=Cc2cccnc2[C@@H](N2CCN(C(=O)OC(C)(C)C)CC2)c2ccc(Cl)cc21)c1cncn1C', 'pIC50', 8.68),
  ('Cn1cncc1CC1=Cc2cccnc2[C@H](N2CCN(C(=O)Nc3ccc(C#N)cc3)CC2)c2ccc(Cl)cc21', 'pIC50', 8.02);
